Origin of the recorded values: patent US11753408B2

# assayNotes: Solubility at pH 7.4
# Type: physicochemical
Catalogue of Sol @ pH 7.4 (ug/mL) readings, one per entry.

CS(=O)(=O)c1ccc(-n2c(=O)ccc3cnc4ccc(-c5ccc(Cl)c(N)c5)cc4c32)cc1 [Compound 28] :: <1.0 ug/mL
CN(C)Cc1ccc(-c2ccc3ncc4ccc(=O)n(-c5ccc6c(c5)CCC(=O)N6)c4c3c2)cc1 [Compound 357] :: >70.00 ug/mL

Sol @ pH 7.4 (ug/mL) for CN(C)Cc1ccc(-c2ccc3ncc4ccc(=O)n(-c5ccc6c(c5)CN(CC(=O)O)C6=O)c4c3c2)cc1 [Compound 355] ?
>77.0 ug/mL

---

Catalogue of Sol @ pH 7.4 readings, one per entry.
# assayNotes: Solubility at pH 7.4
# Format: physicochemical

The following compounds have reported results that may help.
CC(C)(C)c1ccc(-c2ccc3ncc4ccc(=O)n(-c5ccc(C(=O)N6CCOCC6)cc5)c4c3c2)cc1 :: <1 ug/mL
O=C(O)c1cccc(-c2ccc3ncc4ccc(=O)n(-c5ccc(C(=O)N6CCOCC6)cc5)c4c3c2)c1 :: >75.0 ug/mL
O=C(c1ccc(-n2c(=O)ccc3cnc4ccc(-c5ccc(O)cc5)cc4c32)cc1)N1CCOCC1 :: <1.0 ug/mL
O=C(c1ccc(-n2c(=O)ccc3cnc4ccc(-c5ccc(F)cc5)cc4c32)cc1)N1CCOCC1 :: <1.0 ug/mL

Sol @ pH 7.4 for O=C(c1ccc(-n2c(=O)ccc3cnc4ccc(-c5ccc(Cl)cc5)cc4c32)cc1)N1CCCCC1 ?
<1.0 ug/mL

Sol @ pH 7.4 for O=C(NC1CC1)c1ccc(-n2c(=O)ccc3cnc4ccc(-c5ccc(F)cc5)cc4c32)cc1 ?
<1 ug/mL

---

# assayNotes: Solubility at pH 7.4
# Format: physicochemical
endpointLabel: Sol @ pH 7.4

The following compounds have reported results that may help.
CCC(=O)NCCNC(=O)c1ccc(-n2c(=O)ccc3cnc4ccc(-c5ccc(Cl)cc5)cc4c32)cc1 [Compound 287] :: <1 ug/mL
O=C(c1ccc(-n2c(=O)ccc3cnc4ccc(-c5ccc(Cl)cc5)cc4c32)cc1)N1C2CCC1CC(O)C2 (stereo not drawn) [Compound 139] :: <1.0 ug/mL

We next turn to a different compound, shown below.
Sol @ pH 7.4 for O=C(c1ccc(-n2c(=O)ccc3cnc4ccc(Br)cc4c32)cc1)N1CCOCC1 [Compound 337] ?
>68.0 ug/mL

---

# assayNotes: Solubility at pH 7.4
# Type: physicochemical
endpointLabel: Sol @ pH 7.4

The following compounds have reported results that may help.
Cc1cc(C(=O)NCCCN2CCN(C)CC2)ccc1-n1c(=O)ccc2cnc3ccc(-c4ccc(Cl)cc4)cc3c21 [Compound 282] :: >86 ug/mL
Cc1nc2ccc(-c3ccc(Cl)cc3)cc2c2c1ccc(=O)n2-c1ccc(C(=O)N2CCOCC2)cc1 [Compound 234] :: <1 ug/mL
N#Cc1cc(NC(=O)c2ccc(-n3c(=O)ccc4cnc5ccc(-c6ccc(Cl)cc6)cc5c43)cc2)ccc1F [Compound 133] :: <1.0 ug/mL

We next turn to a different compound, shown below.
Sol @ pH 7.4 for Cn1c(=O)n(-c2cccc(C#N)c2)c2c3cc(-c4cccc(O)c4)ccc3ncc21 [Compound 444] ?
<1.0 ug/mL

---

Catalogue of Microsomal Stability (rat) T1/2 readings, one per entry.
# assayNotes: Microsomal stability (rat)
# Type: in vitro ADME
# measurementParameters: rat microsomes
Write the value in min as a bare number.

CCNC(=O)c1cc(-c2ccc3ncc4ccc(=O)n(-c5ccc(S(C)(=O)=O)cc5)c4c3c2)ccc1Cl :: 2.8

Microsomal Stability (rat) T1/2 for CC1CCN(CCCNC(=O)c2ccc(-n3c(=O)ccc4cnc5ccc(-c6ccc(Cl)cc6)cc5c43)cc2)CC1 ?
2.4

Microsomal Stability (rat) T1/2 for O=C(c1ccc(-n2c(=O)ccc3c(O)nc4ccc(-c5ccc(Cl)cc5)cc4c32)cc1)N1CCOCC1 ?
8.4

Microsomal Stability (rat) T1/2 for Cc1cc(C(=O)NCCCN2CCOCC2)ccc1-n1c(=O)ccc2cnc3ccc(-c4ccc(F)cc4)cc3c21 ?
1.6
